Target: GCase (Homo sapiens, UniProt P04062)
Construct: endogenous in cells; host or cells: HeLa cells
Sequence (P04062 40-536): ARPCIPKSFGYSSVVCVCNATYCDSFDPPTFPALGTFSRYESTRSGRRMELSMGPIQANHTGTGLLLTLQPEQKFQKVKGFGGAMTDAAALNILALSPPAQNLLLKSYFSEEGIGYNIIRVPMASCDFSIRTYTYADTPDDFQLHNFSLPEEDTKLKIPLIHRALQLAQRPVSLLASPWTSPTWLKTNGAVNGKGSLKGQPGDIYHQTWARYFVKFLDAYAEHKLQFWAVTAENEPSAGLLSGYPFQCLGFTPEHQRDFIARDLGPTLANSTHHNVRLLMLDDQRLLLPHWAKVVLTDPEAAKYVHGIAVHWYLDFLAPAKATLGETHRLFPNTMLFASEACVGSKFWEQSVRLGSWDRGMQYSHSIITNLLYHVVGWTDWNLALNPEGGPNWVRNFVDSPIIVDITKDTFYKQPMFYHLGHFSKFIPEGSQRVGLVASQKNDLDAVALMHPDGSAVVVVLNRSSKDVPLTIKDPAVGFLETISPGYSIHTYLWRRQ
Test: activation of GCase in a live cell PFB assay in HELA cells
Type: cell-based
Conditions: activation of GCase, EC50 ranges
EC50 values for the compounds below.

O=C1N(Cc2cncc(C(F)(F)F)c2)CCC12CCN(c1cnc3cnn(CC(F)F)c3n1)CC2 [Cmpd 332]    < 10 µM
O=C1N(c2cnc3cnn(CC(F)F)c3n2)CCC12CCN(c1cccc(C(F)(F)F)n1)CC2 [Compound 99]    < 10 µM
Cc1nn(CC(F)F)c2nc(N3CCC4(CC3)CCN(c3nccc(C(F)(F)F)n3)C4=O)cnc12 [Cmpd 281]    < 10 µM

Considering FC(F)(F)Cn1ncc2cnc(N3CCC4(CCN(c5ccnc(C(F)(F)F)c5)C4)C3)nc21 (centres unmarked) [Cmpd 489] , its EC50 with GCase (Homo sapiens, UniProt P04062) was recorded as 10 to 50 µM

Considering Cn1c(N2CCC3(CCN(c4cnc5cnn(CC(F)F)c5n4)CC3)C2=O)cc(=O)cc1C(F)(F)F [Cmpd 666] , its EC50 with GCase (Homo sapiens, UniProt P04062) was recorded as < 10 µM

Considering FC(F)Cn1ncc2ncc(N3CC4(CCN(c5cccc(C(F)(F)F)n5)CC4)C3)nc21 [Compound 125] , its EC50 with GCase (Homo sapiens, UniProt P04062) was recorded as 10 to 50 µM

Considering FC(F)(F)c1ccnc(N2CC3(CCN(c4cnc5cnn(C6COC6)c5n4)CC3)C2)c1 [Cmpd 493] , its EC50 with GCase (Homo sapiens, UniProt P04062) was recorded as < 10 µM

Considering O=C1N(c2cncc(C(F)(F)F)c2)CCC12CCN(c1cnc3cnn(CC(F)F)c3n1)CC2 [Cmpd 674] , its EC50 with GCase (Homo sapiens, UniProt P04062) was recorded as < 10 µM

* * *

molecular target: GCase (Homo sapiens, UniProt P04062); construct: endogenous in cells; host or cells: HeLa cells; assay: activation of GCase in a live cell PFB assay in HELA cells; type: cell-based; conditions: activation of GCase, EC50 ranges
ENDPOINT_NAME: EC50

Here's what some known entries look like.
Cc1nc(N2CC3(CCN(c4cncc(-c5ccnn5CC(F)F)n4)C3)C2)cc(C(F)(F)F)n1 [Cmpd 1119]    10 to 50 µM
Cc1nc(N2CCC3(CCN(c4cnc5c(C)nn(CC(F)F)c5n4)C3)C2)cc(C(F)(F)F)n1 (stereo not shown) [Cmpd 537]    > 100 µM
CCn1c(N2CCC3(CN(c4cc(C(F)(F)F)nc(C)n4)C3)C2)nc2c(cnn2C2COC2)c1=O [Cmpd 1115]    10 to 50 µM

// sample Cc1ncc(CN2CC3(CCN(c4cnc5cnn(CC(F)F)c5n4)CC3)CC2=O)o1 [Cmpd 974] , its EC50 was 50 to 100 µM
